# experimentalTarget: CDK8/cyclin C (Homo sapiens (Human), UniProt P49336)
# Sequence (P49336 whole entry, looked up): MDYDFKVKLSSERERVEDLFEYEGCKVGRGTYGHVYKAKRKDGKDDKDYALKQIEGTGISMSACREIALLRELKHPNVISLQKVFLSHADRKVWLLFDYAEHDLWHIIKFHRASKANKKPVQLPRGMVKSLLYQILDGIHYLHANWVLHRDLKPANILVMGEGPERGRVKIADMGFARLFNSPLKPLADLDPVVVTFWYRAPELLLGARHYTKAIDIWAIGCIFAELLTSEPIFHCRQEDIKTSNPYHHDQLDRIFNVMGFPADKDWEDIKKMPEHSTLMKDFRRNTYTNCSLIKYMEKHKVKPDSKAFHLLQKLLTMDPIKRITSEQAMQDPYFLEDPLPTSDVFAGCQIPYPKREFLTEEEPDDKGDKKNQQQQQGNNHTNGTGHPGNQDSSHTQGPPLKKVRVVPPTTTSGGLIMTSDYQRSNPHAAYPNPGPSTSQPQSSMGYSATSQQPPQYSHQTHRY
# Sequence (P24863 whole entry partner, looked up): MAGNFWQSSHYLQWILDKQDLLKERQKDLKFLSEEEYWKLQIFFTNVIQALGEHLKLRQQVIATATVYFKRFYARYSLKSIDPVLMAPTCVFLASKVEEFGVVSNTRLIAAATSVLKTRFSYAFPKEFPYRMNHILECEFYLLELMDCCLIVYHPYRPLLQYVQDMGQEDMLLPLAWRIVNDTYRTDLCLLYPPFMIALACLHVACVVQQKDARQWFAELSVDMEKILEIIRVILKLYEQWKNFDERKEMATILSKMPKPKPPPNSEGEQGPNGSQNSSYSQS
# procedureText: LanthaScreen Eu Kinase Binding Assay for CDK8/cyclin C
# testConditions: 10-point curve, 4-fold dilution series, 60 min at room temperature
pIC50: −log10 of the molar value.

# molecule, pIC50
rows = [
    ("Cn1ncc2cc(-c3cnc4[nH]ccc4c3N3CCC4(CC3)NC(=O)NC4=O)ccc21 [Compound 014]", 8.52),
    ("Cn1ncc2cc(-c3cnc4[nH]cnc4c3N3CCC4(CCNC4=O)CC3)ccc21 [Compound 016]", 8.00),
    ("O=C1NCCC12CCN(c1c(-c3ccc4scnc4c3)cnc3[nH]ccc13)CC2 [Compound 002]", 8.19),
]
